Biological target: adenosine A1 receptor (Rattus norvegicus, UniProt P25099)
Construct: from tissue; host or cells: rat whole brain membranes
Sequence (P25099 whole entry): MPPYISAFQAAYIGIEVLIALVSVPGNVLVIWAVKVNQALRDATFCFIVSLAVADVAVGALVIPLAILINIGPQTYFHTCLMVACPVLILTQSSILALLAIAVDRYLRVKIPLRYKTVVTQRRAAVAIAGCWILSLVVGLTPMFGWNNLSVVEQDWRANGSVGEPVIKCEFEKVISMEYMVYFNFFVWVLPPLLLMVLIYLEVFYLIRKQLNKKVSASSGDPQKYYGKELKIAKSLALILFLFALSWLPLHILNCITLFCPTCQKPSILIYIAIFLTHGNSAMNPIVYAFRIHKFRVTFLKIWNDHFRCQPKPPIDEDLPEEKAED
Experiment: [3H]-N6-cyclohexyladenosine binding to rat whole brain membranes (A1 affinity, RBA-1)

- compound: "CCCn1c(=O)c2[nH]c(C3CCSC3)nc2n(CCC)c1=O (centres unmarked)"
  IC50: "2 nM"
- compound: "CCCn1c(=O)c2[nH]c(C3CCCS3)nc2n(CCC)c1=O (centres unmarked)"
  IC50: "88 nM"
- compound: "Cn1c(=O)c2nc(C3CCOC3)[nH]c2n(C)c1=O (centres unmarked)"
  IC50: "400 nM"
- compound: "CCCn1c(=O)c2[nH]c(C3CCCO3)nc2n(CCC)c1=O (centres unmarked)"
  IC50: "20 nM"
- compound: "CCCn1c(=O)c2[nH]c(C3CCOC3)nc2n(CCC)c1=O (centres unmarked)"
  IC50: "28 nM"

The measurements presented in this section are drawn from patent US4755517A.
